The measured values listed here are drawn from paper PMC10572347.

molecular target: CYP3A4 (Homo sapiens, UniProt P08684); experiment: Cytochrome P450 3A4 inhibition assay (P450-Glo, Luciferin-IPA); conditions: recombinant human CYP3A4 Supersomes (+ oxidoreductase + b5), pH 7.4, probe Luciferin-IPA
Sequence (P08684 2-503 limits assumed): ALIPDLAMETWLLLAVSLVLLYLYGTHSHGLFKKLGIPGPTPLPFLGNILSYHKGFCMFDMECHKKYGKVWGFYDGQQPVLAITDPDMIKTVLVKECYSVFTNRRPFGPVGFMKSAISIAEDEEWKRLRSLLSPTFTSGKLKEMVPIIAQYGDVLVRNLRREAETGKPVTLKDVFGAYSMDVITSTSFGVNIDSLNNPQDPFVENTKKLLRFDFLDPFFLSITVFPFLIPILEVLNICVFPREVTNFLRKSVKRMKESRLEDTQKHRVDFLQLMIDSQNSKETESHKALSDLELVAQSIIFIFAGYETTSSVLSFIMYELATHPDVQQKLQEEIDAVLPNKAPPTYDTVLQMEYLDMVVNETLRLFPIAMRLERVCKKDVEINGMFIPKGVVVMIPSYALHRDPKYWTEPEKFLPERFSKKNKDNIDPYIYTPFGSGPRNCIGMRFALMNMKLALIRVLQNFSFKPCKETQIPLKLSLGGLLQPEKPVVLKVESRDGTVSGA
Measurement Kind: inhibition at 10 min, 20 µM (%)
Please reply with the bare figure in % and do not write the unit itself.

Compound: CCOc1ccc(-c2nonc2NC(=O)c2cccc(C)c2)cc1OC
Assayed Target: CYP3A4 (Homo sapiens, UniProt P08684)
Units Symbol: %
inhibition at 10 min, 20 µM: 52

stdin: So what does the record say about inhibition at 10 min, 20 µM for CCOc1ccc(-c2nonc2NC(=O)c2cccc(C)c2)cc1OCC [Compound 1, reference compound] ?
stdout: 45

stdin: So what does the record say about inhibition at 10 min, 20 µM for "O=C(Nc1nonc1-c1cccc([N+](=O)[O-])c1)c1cccc(F)c1" ?
stdout: 79

stdin: So what does the record say about inhibition at 10 min, 20 µM for "Cc1cccc(C(=O)Nc2nonc2-c2ccc([N+](=O)[O-])cc2)c1" ?
stdout: 68

stdin: So what does the record say about inhibition at 10 min, 20 µM for "O=C(Nc1nonc1-c1cccc([N+](=O)[O-])c1)c1ccccc1" ?
stdout: 82
